// provenance: patent US9688865B2

Assay: Distribution coefficient of water-octanol (log P), OECD Test Guideline 107
OBSERVED_PROPERTY: logP

>  <COMPOUND>
CCCCCCCC(=O)OCC(CO)(CO)CO [Pentaerythritol caprylate, pentaerythritol caprylate]

>  <MEASURED_RESULT>
2.29

$$$$
